EXPERIMENTAL_SYSTEM: Human immunodeficiency virus type 1 integrase (Human immunodeficiency virus 1, UniProt Q7ZJM1)
Sequence (Q7ZJM1 whole entry): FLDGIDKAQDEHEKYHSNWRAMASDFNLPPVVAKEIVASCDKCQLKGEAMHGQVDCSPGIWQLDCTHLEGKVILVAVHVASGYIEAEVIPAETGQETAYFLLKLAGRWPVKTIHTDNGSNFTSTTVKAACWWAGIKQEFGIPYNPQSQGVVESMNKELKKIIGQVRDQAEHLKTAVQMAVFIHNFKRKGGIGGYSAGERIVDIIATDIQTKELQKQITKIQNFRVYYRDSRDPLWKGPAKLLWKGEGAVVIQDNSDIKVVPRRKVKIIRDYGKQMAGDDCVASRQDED
TEST: Inhibition of HIV1 integrase 3' processing activity
Readings of pIC50 for the listed molecules
pIC50 is defined as minus the log10 of a concentration measured in mol/L.

COMPOUND_STRUCTURE	pIC50
O=C(O)C1=NN(c2cccc([N+](=O)[O-])c2)C(=O)/C1=C\c1ccc(OCc2ccc(F)cc2)c(O)c1	4.68

The molecule identified as COc1ccc(/C=C2\C(=O)N(c3cccc(Br)c3)N=C2C(=O)O)cc1OCc1ccc(F)cc1 registered its pIC50 at 4.26

pIC50 in this record for COc1ccc(/C=C2\C(=O)N(c3cccc(Br)c3)N=C2C(F)(F)F)cc1OCc1ccc(F)cc1 : 4.08

====

EXPERIMENTAL_SYSTEM: Human immunodeficiency virus type 1 integrase (Human immunodeficiency virus 1)
TEST: Inhibition of HIV1 integrase 3' processing activity
pIC50: −log10 of the molar value.
Entries and their measured pIC50 follow.

Would you please look over these solved cases?
COMPOUND_STRUCTURE	EXPERIMENTAL_SYSTEM	pIC50
COc1ccc(/C=C2\C(=O)N(c3cccc(F)c3)N=C2C(F)(F)F)cc1OCc1ccc(F)cc1	Human immunodeficiency virus type 1 integrase (Human immunodeficiency virus 1)	< 4.00
COc1ccc(/C=C2\C(=O)N(c3ccc(Br)cc3)N=C2C(F)(F)F)cc1OCc1ccc(F)cc1	Human immunodeficiency virus type 1 integrase (Human immunodeficiency virus 1)	4.09
COc1ccc(/C=C2\C(=O)N(c3cc(Cl)cc(Cl)c3)N=C2C(F)(F)F)cc1OCc1ccc(F)cc1	Human immunodeficiency virus type 1 integrase (Human immunodeficiency virus 1)	< 4.00
COc1ccc(/C=C2\C(=O)N(c3cccc(C(F)(F)F)c3)N=C2C(F)(F)F)cc1OCc1ccc(F)cc1	Human immunodeficiency virus type 1 integrase (Human immunodeficiency virus 1)	4.05
COc1ccc(/C=C2\C(=O)N(c3cccc(Cl)c3)N=C2C(F)(F)F)cc1OCc1ccc(F)cc1	Human immunodeficiency virus type 1 integrase (Human immunodeficiency virus 1)	4.06

// recorded pIC50 for COc1ccc(/C=C2\C(=O)N(c3cccc(C)c3)N=C2C(F)(F)F)cc1OCc1ccc(F)cc1 : < 4.00

Just so you know, measured pIC50 for O=C1/C(=C\c2ccc(O)c(OCc3ccc(F)cc3)c2)C(C(F)(F)F)=NN1c1cccc(Br)c1 came out at < 4.00

For this compound ( COc1cc(/C=C2\C(=O)N(c3cccc(Br)c3)N=C2C(F)(F)F)cc(OC)c1OC ), measured pIC50 is 4.21

Looking up COc1ccc(/C=C2\C(=O)N(c3cccc(Br)c3)N=C2NC(=O)C(F)(F)F)cc1OCc1ccc(F)cc1 , I see its pIC50 listed as < 4.00

# pIC50 (compound: COc1ccc(/C=C2\C(=O)N(c3cccc(Br)c3)N=C2C)cc1OCc1ccc(F)cc1 ) is < 4.00

Recorded pIC50 (compound COc1ccc(/C=C2\C(=O)N(c3cccc(Br)c3)N=C2C(F)(F)F)cc1OCc1cccc(Cl)c1F ): 4.30

Reported pIC50 for COc1ccc(/C=C2\C(=O)N(c3ccc(NS(C)(=O)=O)cc3)N=C2C(F)(F)F)cc1OCc1ccc(F)cc1 was < 4.00

The reported value for CCC1=NN(c2cccc(Br)c2)C(=O)/C1=C\c1ccc(OC)c(OCc2ccc(F)cc2)c1 in terms of pIC50 is < 4.00

pIC50 measured on COc1ccc(/C=C2\C(=O)N(c3cccc(I)c3)N=C2C(F)(F)F)cc1OCc1ccc(F)cc1 = < 4.00
